// each record: one item and its IC50 for factor Xa, human (Homo sapiens, UniProt P00742)
Just the number please, in nM, no unit attached.

Req: Which value of IC50 has been reported for N=C(N)c1cccc(N(CC(=O)Nc2ccc(-c3ccccc3S(N)(=O)=O)cc2)Cc2ccccc2)c1 in the records?
Resp: 81

Req: Look at this molecule and give its reported IC50. CCCN(CC(=O)Nc1ccc(-c2ccccc2S(N)(=O)=O)cc1)c1cccc(C(=N)N)c1
Resp: 130

Req: Which value of IC50 has been reported for CCCN(CC(=O)Nc1ccc(-c2ccccc2S(C)(=O)=O)cc1)c1cccc(C(=N)N)c1 in the records?
Resp: 120

Req: Would you mind telling me what IC50 value was observed for CC(C)CN(CC(=O)Nc1ccc(-c2ccccc2S(N)(=O)=O)cc1)c1cccc(C(=N)N)c1 ?
Resp: 480
